- Tested on: HCT-116 MTAP(−/−)deleted cells
- test_summary: Inhibitory activity of compounds on the proliferation of HCT-116 MTAP(−/−)deleted cells
- Format: cell-based
- condition_context: Homo sapiens, 192 h, Cell-Titer Glo, 8 d, 0-10,000 nM, 3-fold dilution, 10 points, 0.1% DMSO
Attribute: IC50
Give just the numeric value; nM need not be written.

Here's what some known entries look like.
{"molecule": "C[C@@H]1COC[C@H](c2ccc(C(F)(F)F)cc2)N1C(=O)c1cc2c(cc1F)nc(N)c1cncn12", "unit_info": "nM", "IC50": 3.2}
{"molecule": "Nc1nc2cc(Cl)c(C(=O)N3CCOCC3c3ccc(C(F)(F)F)cc3)cc2n2cncc12 (stereo in doubt) [Example 4A]", "unit_info": "nM", "IC50": 6.5}
{"molecule": "Nc1nc2cc(F)c(C(=O)N3CCCC[C@@H]3c3ccc(F)cc3)cc2n2cncc12", "unit_info": "nM", "IC50": 24.3}
{"molecule": "Nc1nc2cc(Cl)c(C(=O)N3CCOCC3c3ccc(C(F)(F)F)cc3)cc2n2cncc12 (stereo in doubt) [Example 4B]", "unit_info": "nM", "IC50": 2780}

Give the measured IC50 of `Nc1nc2ccc(C(=O)N3CCCC[C@@H]3c3ccc(F)cc3)cc2n2cncc12` .
671

Similarly, `Nc1nc2cc(F)c(C(=O)N3CCC[C@@H]3c3ccc(C(F)(F)F)cc3)cc2n2cncc12` ?
1300

Similarly, Nc1nc2ccc(C(=O)N3CCCCC3c3ccc(Oc4ccc(F)cc4)cc3)cc2n2cncc12 (centres unmarked) ?
472

----------
- Tested on: HCT-116 MTAP(−/−)deleted cells
- test_summary: Inhibitory activity of compounds on the proliferation of HCT-116 MTAP(−/−)deleted cells
- Format: cell-based
- condition_context: Homo sapiens, 192 h, Cell-Titer Glo, 8 d, 0-10,000 nM, 3-fold dilution, 10 points, 0.1% DMSO
readout_type: pIC50
Scale: pIC50 equals -log10([C]), with [C] in mol/L.

Here's what some known entries look like.
{"compound": "Nc1nc2cc(F)c(C(=O)N3CCO[C@@H](c4ccc(C(F)(F)F)cc4)C3)cc2n2cncc12 [Example 15]", "subject_of_test": "HCT-116 MTAP(−/−)deleted cells", "pIC50": 6.03}
{"compound": "Nc1nc2ccc(C(=O)N3CCCC[C@@H]3c3ccc(F)cc3)cc2n2cccc12 [Example 1]", "subject_of_test": "HCT-116 MTAP(−/−)deleted cells", "pIC50": 5.41}

Shifting focus to the compound that follows.
For HCT-116 MTAP(−/−)deleted cells, provide pIC50 of Nc1nc2ccc(C(=O)N3CCCCC3c3cnc4cccnc4c3)cc2n2cncc12 (stereo not shown) [Example 18] please.
5.85

----------
- Test system: HCT-116 MTAP(−/−)deleted cells
- test_summary: Inhibitory activity of compounds on the proliferation of HCT-116 MTAP(−/−)deleted cells
- Assay type: cell-based
- condition_context: Homo sapiens, 192 h, Cell-Titer Glo, 8 d, 0-10,000 nM, 3-fold dilution, 10 points, 0.1% DMSO
Attribute: IC50

{"compound": "Nc1nc2cc(F)c(C(=O)N3CCC[C@@H](c4ccc(C(F)(F)F)cc4)C3)cc2n2cncc12 [Example 13B]", "IC50": "> 3000 nM"}
{"compound": "Nc1nc2ccc(C(=O)N3CCCCC3c3ccc4ccccc4n3)cc2n2cncc12 (stereo not shown)", "IC50": "242 nM"}
{"compound": "Nc1nc2cc(F)c(C(=O)N3CCC[C@H](c4ccc(C(F)(F)F)cc4)C3)cc2n2cncc12 [Example 13A]", "IC50": "516 nM"}
{"compound": "Nc1nc2cc(Cl)c(C(=O)N3CCCC[C@@H]3c3ccc(F)cc3)cc2n2cncc12", "IC50": "28.8 nM"}
{"compound": "Nc1nc2cc(F)c(C(=O)N3CC(c4ccc(C(F)(F)F)cn4)C3)cc2n2cncc12", "IC50": "795 nM"}
{"compound": "Nc1nc2cc(F)c(C(=O)N3CCCC(c4ccc(C(F)(F)F)cc4)C3)cc2n2cncc12 (stereo not shown)", "IC50": "458 nM"}

Shifting focus to the compound that follows.
Give the measured IC50 of Nc1nc2cc(F)c(C(=O)N3CCC(c4ccc(C(F)(F)F)cn4)C3)cc2n2cncc12 (stereo not shown) .
396 nM
